Below, each entry is listed with its recorded Ratio.
Species: Rattus norvegicus
TEST_DETAILS: Ratio of binding affinity for serotonin 5-HT1A to serotonin 5-HT7
Answer with the value's number alone.

Below, 3 compounds whose answers are already recorded.
INSERT INTO results (structure, value) VALUES
  ('O=S(=O)(c1ccc2cc[nH]c2c1)N1CCC[C@@H]1CCN1CCC(Oc2ccc(Cl)cc2)CC1', 282),
  ('CCCN(CCC)[C@H]1COc2c(cccc2-c2c(OC)cccc2OC)C1', 27),
  ('COc1c(-c2ccc3c(c2)C[C@H](N(C)C)CO3)ccc2ccccc12', 8);

Measured Ratio, Cc1cccc(C)c1-c1ccc2c(c1)C[C@H](N(C)C)CO2 : 6

Reference source: ChEMBL document CHEMBL1144298
